SYSTEM_TESTED: ASCT2 (Rattus norvegicus (Rat))
Sequence (D3ZJ25 whole entry): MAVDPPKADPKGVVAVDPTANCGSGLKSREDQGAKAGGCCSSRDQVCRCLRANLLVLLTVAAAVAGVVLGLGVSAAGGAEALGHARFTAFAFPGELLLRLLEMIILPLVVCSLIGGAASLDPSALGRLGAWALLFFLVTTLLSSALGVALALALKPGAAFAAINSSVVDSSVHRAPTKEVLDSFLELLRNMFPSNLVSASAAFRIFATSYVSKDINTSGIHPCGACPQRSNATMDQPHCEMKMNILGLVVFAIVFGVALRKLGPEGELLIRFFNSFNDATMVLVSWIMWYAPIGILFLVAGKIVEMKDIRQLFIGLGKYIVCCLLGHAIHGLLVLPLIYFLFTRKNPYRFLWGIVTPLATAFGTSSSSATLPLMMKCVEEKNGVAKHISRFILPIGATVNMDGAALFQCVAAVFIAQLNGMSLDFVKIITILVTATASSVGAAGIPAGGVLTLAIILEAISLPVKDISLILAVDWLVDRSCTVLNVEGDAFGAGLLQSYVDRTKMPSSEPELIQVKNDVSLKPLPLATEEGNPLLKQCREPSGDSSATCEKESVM
PROTOCOL_DETAILS: Inhibition of ASCT2-mediated glutamine uptake in C6 (rat) cells
CONDITION_NOTES: C6 (rat) cells; glutamine uptake; mean of at least 3 biological replicates
OBSERVABLE: IC50 (µM)
Answers are plain numbers, in µM.

Parameter requested: IC50. Apply to each item below.
1. N[C@H](CCN(Cc1ccccc1OCc1ccccc1Cl)Cc1ccccc1OCc1ccccc1Cl)C(=O)O
2. N[C@H](CCN(Cc1ccccc1Oc1ccccn1)Cc1ccccc1Oc1ccccn1)C(=O)O
3. N[C@H](CCN(Cc1ccccc1OCc1ccccc1F)Cc1ccccc1OCc1ccccc1F)C(=O)O
4. N[C@H](CCN(Cc1ccccc1Oc1ccccc1F)Cc1ccccc1Oc1ccccc1F)C(=O)O
5. COc1cccc(COc2ccccc2CN(CC[C@@H](N)C(=O)O)Cc2ccccc2OCc2cccc(OC)c2)c1
6. N[C@H](CCN(Cc1ccccc1OCc1cccnc1)Cc1ccccc1OCc1cccnc1)C(=O)O
7. N[C@H](CCN(Cc1ccccc1OCc1ccccn1)Cc1ccccc1OCc1ccccn1)C(=O)O
8. COc1cccc(Oc2ccccc2CN(CC[C@@H](N)C(=O)O)Cc2ccccc2Oc2ccccc2OC)c1

Result block:
1: 18.4; 2: 68.2; 3: 3.3; 4: 1.8; 5: 5.1; 6: 17.3; 7: 8.4; 8: 1.3

Parameter requested: IC50. Apply to each item below.
1. N[C@H](CCN(Cc1ccccc1Oc1cccc(F)c1)Cc1ccccc1Oc1cccc(F)c1)C(=O)O
2. Cc1ccc(COc2ccccc2CN(CC[C@@H](N)C(=O)O)Cc2ccccc2OCc2ccc(C)cc2)cc1

Result block:
1. 36.3
2. 86.4
